These data points were gathered from ChEMBL document CHEMBL1125034.

Exercise: state measured pKi for each of the compounds provided.
Biological target: Neutrophil elastase (Homo sapiens)
Sequence (P08246 whole entry): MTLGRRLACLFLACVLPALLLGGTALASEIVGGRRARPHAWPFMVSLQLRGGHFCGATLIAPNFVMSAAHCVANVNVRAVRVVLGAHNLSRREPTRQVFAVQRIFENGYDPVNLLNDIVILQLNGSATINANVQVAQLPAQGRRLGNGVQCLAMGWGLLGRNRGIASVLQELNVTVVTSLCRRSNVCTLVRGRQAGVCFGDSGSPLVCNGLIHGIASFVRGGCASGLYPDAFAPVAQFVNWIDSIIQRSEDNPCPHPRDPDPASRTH
Test: Inhibition of human leukocyte elastase
One number for each entry, as −log10 of the molar value.

Worked set:
smiles-input	pKi
Cc1cccc2nc(C(F)(F)C(F)(F)C(F)(F)F)oc(=O)c12	7.51
CC(C)N(c1nc2ccccc2c(=O)o1)C(C)C	5.59
CCSc1nc2cc(OC)c(OC)cc2c(=O)o1	5.92
Cc1ccc(C)c2c(=O)oc(NC(C)C)nc12	8.18

# next compound below
Q: Field request: pKi | item: CCCc1cc(N(C)C)cc2nc(NC(C)C)oc(=O)c12
A: 6.55

###

assay: Partition coefficient (logD7.4); format: physicochemical; settings: octanol/water, pH 7.4
Label scheme for logD: lower than 3 is -1, 3 and above is 1.

Q: Hi, just wondering whether CNc1nc2cccc(C)c2c(=O)o1 shows logD of 3 or higher.
A: -1

Q: Decide: logD of Cc1nc2ccccc2c(=O)o1 >= 3?
A: -1

Q: Could you tell me if the measured logD of CCCCNc1nc2ccccc2c(=O)o1 reaches 3 or more?
A: 1

Q: Confirm if logD reported for the molecule CCSc1nc2cccc(C)c2c(=O)o1 is 3 or above.
A: 1

Q: Reported logD reaches at least 3 for COC(=O)[C@H](CC(C)C)Nc1nc2ccccc2c(=O)o1 ?
A: 1

Q: Has CCCCNc1nc2cccc(CC)c2c(=O)o1 a recorded logD greater than or equal to 3?
A: 1

Q: Is the recorded value of logD equal to or greater than 3 for this molecule? Cc1nc2cc3ccccc3cc2c(=O)o1
A: -1

Q: Hello, I need to know if O=c1oc(/C=C/c2ccccc2)nc2ccccc12 has measured logD not below 3. Thanks!
A: 1

Q: Would you say CCNc1ccc2c(=O)oc(NC(C)C)nc2c1 shows logD at minimum 3?
A: -1

Q: Could you please find out whether CCCCCCNc1nc2ccccc2c(=O)o1 has logD that meets 3 or exceeds it?
A: 1

Q: Item COC(=O)C(Nc1nc2ccccc2c(=O)o1)c1ccccc1 (configuration not stated) with logD of 3 or above?
A: -1

###

test: Partition coefficient (logD7.4); assay type: physicochemical; conditions: octanol/water, pH 7.4
outcome-measure: logD
One number for each entry.

smiles-input	logD
CC(C)Nc1nc2ccccc2c(=O)o1	2.4
Cc1cccc2nc(C(F)(F)C(F)(F)C(F)(F)F)oc(=O)c12	2.9
COC(=O)[C@H](CC(C)C)Nc1nc2cc(C)cc(C)c2c(=O)o1	4
CNc1nc2ccccc2c(=O)o1	1.7
COc1cccc2nc(Nc3ccccc3)oc(=O)c12	3.1

For each of the molecules below, state logD.
1. CCCCNc1nc2cc(N)ccc2c(=O)o1
2. Cc1nc2c(C)cccc2c(=O)o1

A:
1.7
2.1

###

I'd appreciate it if you could supply Log kOH- values for the items below.
test: Alkaline hydrolysis rate of the compound; type: ADME
Answers are plain numbers.

compound	Log kOH-
Cc1cccc2ncoc(=O)c12	1.38
CCCCCCNc1nc2ccccc2c(=O)o1	0.96
COC(=O)[C@H](Nc1nc2ccccc2c(=O)o1)c1ccccc1	1.39

Please go through the list and note Log kOH- for each compound.
1. CC(C)NC(=O)[C@H](CC(N)=O)Nc1nc2ccccc2c(=O)o1
2. COc1cccc2nc(C)oc(=O)c12
3. Cc1ccc(C)c2c(=O)oc(NC(C)C)nc12
4. CCc1cc(N)cc2nc(N3CCCC3C(=O)N[C@@H](CC(C)C)C(N)=O)oc(=O)c12 (stereo partly drawn)
5. COC(=O)C(CC(C)C)Nc1nc2ccccc2c(=O)o1 (stereo not drawn)

A:
[1.45, 0.83, 0.2, -1.08, 1.32]

###

target: Neutrophil elastase (Homo sapiens); assay: Inhibition of human leukocyte elastase
pKi: −log10 of the molar value.
Threshold check on pKi: at or above 6 gives label 1, strictly below gives label 0.

molecule	test-target	classification
CCOc1nc2cccc(CBr)c2c(=O)o1	Neutrophil elastase (Homo sapiens)	label 1
CC[C@H](C)[C@H](Nc1nc2ccccc2c(=O)o1)C(=O)OC	Neutrophil elastase (Homo sapiens)	label 1
CC(C)NC(=O)[C@H](CC(N)=O)Nc1nc2ccccc2c(=O)o1	Neutrophil elastase (Homo sapiens)	label 0
NC(=O)[C@@H]1CCCN1c1nc2ccccc2c(=O)o1	Neutrophil elastase (Homo sapiens)	label 1
Cc1cc(C)c2c(=O)oc(NC(C)C)nc2c1	Neutrophil elastase (Homo sapiens)	label 1
COc1cccc2nc(C(F)(F)F)oc(=O)c12	Neutrophil elastase (Homo sapiens)	label 1

Q: In plain terms: is recorded pKi at least 6 for COc1cc(C)c2c(=O)oc(NC(C)C)nc2c1 ?
A: label 1

Q: Answer whether pKi of CC(=O)Nc1ccc2c(=O)oc(NC(C)C)nc2c1 is greater than or equal to 6.
A: label 1

Q: Textbook exercise: given the entry O=c1oc(Nc2ccccc2)nc2ccccc12 , state whether its pKi is greater than or equal to 6.
A: label 0

###

assay: Alkaline hydrolysis rate of the compound; assay type: ADME
outcome-measure: Log kOH-

Solved entries (count: 3):
smiles-input	Log kOH-
Cc1cccc2c(=O)oc(NCc3ccccc3)nc12	0.92
COc1cc2nc(SCc3c[nH]cn3)oc(=O)c2cc1OC	1.31
CCSc1nc2cccc(C)c2c(=O)o1	1.58

// batch mode: one Log kOH- value per listed entry
1. COC(=O)[C@@H](CC(C)C)Nc1nc2ccccc2c(=O)o1
2. CC(=O)NCc1nc2ccccc2c(=O)o1
3. CC(C)C[C@H](NC(=O)[C@@H]1CCCN1c1nc2ccccc2c(=O)o1)C(=O)NCC(N)=O
4. NC(=O)[C@H](Cc1ccccc1)Nc1nc2ccccc2c(=O)o1
5. Cc1ccccc1CNc1nc2ccccc2c(=O)o1
6. Cc1cccc2nc(CBr)oc(=O)c12
7. CCCc1cccc2nc(OCC)oc(=O)c12

A:
[1.32, 1.86, 1.26, 1.26, 1.01, 1.58, 1.17]

###

biological target: Neutrophil elastase (Homo sapiens, UniProt P08246); test: Inhibition of human leukocyte elastase
pKi: −log10 of the molar value.
I'd appreciate it if you could label each record using pKi and these ranges: 0 = under 6, 1 = from 6 up to 7, 2 = 7 and over

compound	test-target	classification
O=c1oc(/C=C/c2ccccc2)nc2ccccc12	Neutrophil elastase (Homo sapiens, UniProt P08246)	0
CN(C)c1ccc(CNc2nc3ccccc3c(=O)o2)cc1	Neutrophil elastase (Homo sapiens, UniProt P08246)	0
CCc1cccc2nc(N[C@@H](CC(C)C)C(=O)OC)oc(=O)c12	Neutrophil elastase (Homo sapiens, UniProt P08246)	2
CCC(C)Nc1nc2ccccc2c(=O)o1 (configuration not stated)	Neutrophil elastase (Homo sapiens, UniProt P08246)	2
COC(=O)C(Nc1nc2ccccc2c(=O)o1)c1ccccc1 (configuration not stated)	Neutrophil elastase (Homo sapiens, UniProt P08246)	2

Q: Which pKi category applies to NC(=O)[C@H](Cc1ccccc1)NC(=O)[C@@H]1CCCN1c1nc2ccccc2c(=O)o1 here?
A: 2

Q: Sort into band: O=c1oc(N2CCCC2)nc2ccccc12
A: 0

Q: Place this compound in its band: CC(C)Nc1nc2cc(N(C)C)ccc2c(=O)o1
A: 1

Q: Which bin should I file CCc1cc(N)cc2nc(NC(C)C)oc(=O)c12 under?
A: 2

###

assay: Alkaline hydrolysis rate of the compound; assay type: ADME
Lab note: cut-off is 1. Strictly less in Log kOH- is rule met. Exactly 1 or more is rule not met.

smiles-input	classification
O=c1oc(NC2CCCCC2)nc2ccccc12	rule met

Q: Answer whether the molecule CCCCCCCCNc1nc2ccccc2c(=O)o1 has Log kOH- strictly less than 1
A: rule met

Q: Please indicate whether the reported Log kOH- of CCSc1nc2cc(OC)c(OC)cc2c(=O)o1 is strictly below 1.
A: rule not met

Q: Check if Log kOH- falls below 1 for O=c1oc(Nc2ccccc2)nc2ccccc12 .
A: rule not met

Q: Please indicate whether the reported Log kOH- of CCOc1nc2cccc(CC)c2c(=O)o1 is strictly below 1.
A: rule not met

Q: Dear colleague, could you confirm whether Log kOH- of Cc1cccc2c(=O)oc(C(C)(C)C)nc12 falls below 1? Thanks.
A: rule met

Q: Criterion: Log kOH- strictly below 1. Is it met by CCOC(=O)CNc1nc2ccccc2c(=O)o1 ?
A: rule not met

Q: Decide: Log kOH- of CSc1nc2ccccc2c(=O)o1 strictly below 1?
A: rule not met

Q: Check if Log kOH- falls below 1 for COC(=O)[C@H](CC(C)C)Nc1nc2cccc(C)c2c(=O)o1 .
A: rule met

Q: Dear colleague, could you confirm whether Log kOH- of CCOc1nc2cccc(C)c2c(=O)o1 falls below 1? Thanks.
A: rule not met

Q: Dear reviewer, please state whether CCOc1nc2cc(N)cc(CC)c2c(=O)o1 has Log kOH- strictly beneath 1.
A: rule met

Q: Dear reviewer, please state whether Cc1ccc2nc(C(F)(F)F)oc(=O)c2c1 has Log kOH- strictly beneath 1.
A: rule not met
